Value source: patent US12180226B2

target: RIPK1 (recombinant GST-RIPK1 kinase domain, residues 1-327) (Homo sapiens (Human)); experiment: RIPK1-ADP-Glo Enzymatic Assay; assay type: biochemical; conditions: ADP-Glo; 25 nM GST-RIPK1, 300 μM ATP; assay lower limit ~25 nM; read-out: RIPK1 V0 Ec50
Sequence (Q13546 1-327): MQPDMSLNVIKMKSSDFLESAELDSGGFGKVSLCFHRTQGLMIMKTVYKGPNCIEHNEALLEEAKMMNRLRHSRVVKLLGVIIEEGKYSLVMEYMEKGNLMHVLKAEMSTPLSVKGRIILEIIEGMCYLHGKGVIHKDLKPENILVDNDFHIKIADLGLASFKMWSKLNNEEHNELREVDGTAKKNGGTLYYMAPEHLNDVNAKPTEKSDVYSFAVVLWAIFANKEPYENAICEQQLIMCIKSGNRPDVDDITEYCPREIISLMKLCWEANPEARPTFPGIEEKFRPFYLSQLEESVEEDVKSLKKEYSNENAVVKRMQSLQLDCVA
attribute_measured: EC50 (nM)
One number for each entry, in nM.

>>> print(df.to_string())
                                   compound  attribute_measured  unit_symbol  recorded_value
0  CSc1nc(C)cc(N2CCC3(CC2)O[C@@H]2CC[C@@H](c4ccccc4)N2C3=O)n1 [Example 4.36]                EC50           nM            37.4

API: the following record is the query input.
## Task Need EC50 of O=C(c1cc(I)c(I)c(I)c1)N1CCC2(CC1)O[C@@H]1CC[C@@H](c3cc(F)cc(F)c3)N1C2=O [Example 5.65] , thanks.
## Result 244

* * *

target: RIPK1 (recombinant GST-RIPK1 kinase domain, residues 1-327) (Homo sapiens (Human)); test: RIPK1-ADP-Glo Enzymatic Assay; type: biochemical; conditions: ADP-Glo; 25 nM GST-RIPK1, 300 μM ATP; assay lower limit ~25 nM; read-out: RIPK1 V0 Ec50
Provide the reported log10(EC50) of each item.
Note: values are log10 of EC50 expressed in nM.

In [3]: df
Out[3]:
                                   molecule                            assayed_target  recorded_value
0  Cc1cnn(-c2cc(N3CCC4(CC3)O[C@@H]3CC[C@@H](c5ccccc5)N3C4=O)ncn2)c1 [Example 4.176]  RIPK1 (recombinant GST-RIPK1 kinase domain, residues 1-327) (Homo sapiens (Human))            1.69

Count: 5. Required value per item: log10(EC50).
1. O=C1N2[C@@H](CC[C@H]2c2ccccc2)OC12CCN(c1ncnc3c1COC3)CC2
2. O=C1N2[C@@H](CC[C@H]2c2cc(F)cc(F)c2)OC12CCN(c1ncc(F)c(C(F)F)n1)CC2
3. Cc1ccccc1C(=O)N1CCC2(CC1)O[C@@H]1CC[C@@H](c3cc(F)cc(F)c3)N1C2=O
4. Cc1nc(C(=O)N2CCC3(CC2)O[C@@H]2CC[C@@H](c4cc(F)cc(F)c4)N2C3=O)no1
5. COc1nc(N2CCC3(CC2)O[C@@H]2CC[C@@H](c4cc(F)cc(F)c4)N2C3=O)ncc1C#N

## Result
1.76
1.58
1.84
2.13
1.08

Please go through the list and note log10(EC50) for each molecule.
1. O=C1N2[C@@H](CC[C@H]2c2ccccc2)OC12CCN(c1cc(Cl)nc(C3CCCCC3)n1)CC2
2. O=C1N2[C@@H](CC[C@H]2c2cc(F)cc(F)c2)OC12CCN(c1ncc(F)cn1)CC2
3. COc1ccc([C@@H]2CC[C@H]3OC4(CCN(C(=O)c5ccccc5)CC4)C(=O)N32)cc1
4. Cc1cncc(C(=O)N2CCC3(CC2)O[C@@H]2CC[C@@H](c4cc(F)cc(F)c4)N2C3=O)c1

## Result
1: 1.92; 2: 1.95; 3: 1.69; 4: 2.45
